STUDY_SYSTEM: delF508-CFTR-HRP (Homo sapiens, UniProt P13569, DEL508-508)
Sequence (P13569 with tags, fused parts or gaps DEL508-508): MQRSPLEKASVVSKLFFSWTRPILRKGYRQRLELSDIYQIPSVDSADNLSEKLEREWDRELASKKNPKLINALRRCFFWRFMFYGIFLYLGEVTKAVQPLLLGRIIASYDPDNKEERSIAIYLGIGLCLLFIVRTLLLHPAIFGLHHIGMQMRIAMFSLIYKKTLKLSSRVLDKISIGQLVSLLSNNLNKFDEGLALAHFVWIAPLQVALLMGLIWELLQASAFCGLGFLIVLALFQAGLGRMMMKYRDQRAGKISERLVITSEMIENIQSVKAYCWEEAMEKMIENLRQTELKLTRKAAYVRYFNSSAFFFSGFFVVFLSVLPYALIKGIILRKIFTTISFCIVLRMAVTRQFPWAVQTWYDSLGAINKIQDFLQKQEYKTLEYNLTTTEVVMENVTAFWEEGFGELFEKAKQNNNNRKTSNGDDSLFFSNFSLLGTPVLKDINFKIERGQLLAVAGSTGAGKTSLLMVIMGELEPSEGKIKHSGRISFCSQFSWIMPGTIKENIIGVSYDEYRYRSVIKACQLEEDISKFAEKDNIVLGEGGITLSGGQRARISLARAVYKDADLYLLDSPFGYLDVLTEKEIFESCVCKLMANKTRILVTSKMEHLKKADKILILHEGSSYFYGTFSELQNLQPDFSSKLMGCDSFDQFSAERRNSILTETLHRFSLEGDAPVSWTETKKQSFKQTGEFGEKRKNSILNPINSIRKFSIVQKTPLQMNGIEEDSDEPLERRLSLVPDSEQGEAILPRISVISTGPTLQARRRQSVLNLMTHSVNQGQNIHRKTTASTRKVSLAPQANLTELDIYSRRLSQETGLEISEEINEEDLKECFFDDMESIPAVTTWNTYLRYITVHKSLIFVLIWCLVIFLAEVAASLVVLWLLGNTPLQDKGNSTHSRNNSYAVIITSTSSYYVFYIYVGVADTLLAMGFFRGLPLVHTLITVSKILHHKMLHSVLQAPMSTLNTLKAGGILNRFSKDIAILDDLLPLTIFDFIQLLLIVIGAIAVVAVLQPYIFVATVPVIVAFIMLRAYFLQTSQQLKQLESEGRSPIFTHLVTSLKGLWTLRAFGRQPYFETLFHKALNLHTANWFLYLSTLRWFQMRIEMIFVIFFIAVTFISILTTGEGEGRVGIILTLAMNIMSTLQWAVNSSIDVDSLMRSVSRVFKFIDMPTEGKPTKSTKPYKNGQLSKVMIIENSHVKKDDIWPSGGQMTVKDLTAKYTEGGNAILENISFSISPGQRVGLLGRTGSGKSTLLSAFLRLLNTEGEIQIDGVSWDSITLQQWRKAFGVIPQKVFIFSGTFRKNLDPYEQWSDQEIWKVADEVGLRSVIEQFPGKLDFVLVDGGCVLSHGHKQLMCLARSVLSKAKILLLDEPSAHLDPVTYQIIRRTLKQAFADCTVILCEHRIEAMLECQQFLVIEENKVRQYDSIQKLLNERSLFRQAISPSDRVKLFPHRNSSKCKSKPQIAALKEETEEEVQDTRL
RUN_DESCRIPTION: Measurement of delF508-CFTR-HRP surface expression in CFBE41o- cells (HRP luminescence)
ASSAY_CONTEXT: mean of at least two replicates
MEASUREMENT_TYPE: EC50 (nM)

1) Cc1ccc(C2CCCCC2)c(OC2(C(=O)NS(=O)(=O)c3cccc(N[C@H]4C[C@H](O)C4)n3)CC2)c1
2420
2) Cc1ccc(C2CC3(CCC3)C2)c(OC2(C(=O)NS(=O)(=O)c3cccc(N4CC[C@H](O)C4)n3)CC2)c1
1090

(1) Cc1ccc(C2CCCCC2)c(OC2(C(=O)NS(=O)(=O)c3cccc(N4CCNC(=O)CC4)n3)CC2)c1
(2) Cc1ccc(C2CCCCC2)c(OC2(C(=O)NS(=O)(=O)c3cccc(N4CC(C)(O)C4)n3)CC2)c1
Prompt: Out of 1 and 2 , name the one with the higher EC50. Answer with the label corresponding to your selection.
Completion: 1
(1: 3790 nM, 2: 2520 nM)

(I) CC1(C)CCN(c2ccc(Cl)cc2OC2(C(=O)NS(=O)(=O)c3cccc(N4CCC(C)(O)C4)n3)CC2)CC1 (single isomer, unassigned) [Example 9-39-2]
(II) O=C(NS(=O)(=O)c1cccc(N2CC(O)C2)n1)C1(Oc2cc(Cl)ccc2C2CC3(CCC3)C2)CC1
(III) Cc1ccc(C2CCC(F)(F)CC2)c(OC2(C(=O)NS(=O)(=O)c3cccc(N[C@H](C)CO)n3)CC2)c1
Prompt: Sequence the entries by EC50, beginning with the highest number. # format: label list in the order the request specifies
Completion: III, II, I
(III: 3970 nM, II: 2050 nM, I: 840 nM)

(a) Cc1ccc(OC2CCCC2)c(OC2(C(=O)NS(=O)(=O)c3cccc(N4CCC(C)(C#N)CC4)n3)CC2)c1
(b) C[C@@H]1CN(c2cccc(S(=O)(=O)NC(=O)C3(Oc4cc(Cl)ccc4C4CCC(C)(C)CC4)CC3)n2)CCO1
Prompt: Out of a and b , name the one with the higher EC50. Answer with the label corresponding to your selection.
Completion: a
(a: 2180 nM, b: 1410 nM)

====

STUDY_SYSTEM: delF508-CFTR-HRP (Homo sapiens, UniProt P13569, DEL508-508)
Construct: expressed in transfected cells
RUN_DESCRIPTION: Measurement of delF508-CFTR-HRP surface expression in CFBE41o- cells (HRP luminescence)
Assay type: cell-based
ASSAY_CONTEXT: CFBE41o-, read-out: DelF508-CFTR-HRP Amax %
MEASUREMENT_TYPE: Emax (%)

# annotated cases, reported Emax shown
1) Cc1ccc(C2CCCCC2)c(OC2(C(=O)NS(=O)(=O)c3cccc(N4CCC(N)(C(F)(F)F)CC4)n3)CC2)c1 [Example 2-17]
503
2) Cc1ccc(C)c(OC2(C(=O)NS(=O)(=O)c3cccc(N4CCOC[C@@H]4C)n3)CC2)c1 [Example 4-2]
134
3) Cc1ccc([C@H]2CC[C@@H](F)CC2)c(OC2(C(=O)NS(=O)(=O)c3cccc(N4CC(C)(O)C4)n3)CC2)c1 (single isomer, unassigned) [Example 4-23]
292

(a) Cc1ccc(C2CCC(F)(F)CC2)c(OC2(C(=O)NS(=O)(=O)c3cccc(N4CCC5(CC4)CC(=O)c4cc(F)ccc4N5)n3)CC2)c1 [Example 3-1]
(b) O=C(NS(=O)(=O)c1cccc(N2CC[C@H](O)C2)n1)C1(Oc2cc(Cl)ccc2N2CC3(CCOCC3)C2)CC1 [Example 9-36]
(c) CO[C@H]1CCN(c2cccc(S(=O)(=O)NC(=O)C3(Oc4cc(Cl)ccc4C4CC5(CCC5)C4)CC3)n2)C1 [Example 7-14]
(d) CC(C)(C)C1(O)CCN(c2cccc(S(=O)(=O)NC(=O)C3(Oc4cc(Cl)ccc4C4CC5(CCC5)C4)CC3)n2)CC1 [Example 7-4]
(e) Cc1ccc(C2CCCCC2)c(OC2(C(=O)NS(=O)(=O)c3cccc(N4CCNC(=O)CC4)n3)CC2)c1 [Example 2-40]
Prompt: Sequence the entries by Emax, beginning with the highest number. # format: label list in the order the request specifies
Completion: d, c, a, e, b

(a) CC1(C)CCCN(c2ccc(Cl)cc2OC2(C(=O)NS(=O)(=O)c3cccc(N4CC[C@@](C)(O)C4)n3)CC2)C1 [Example 9-30]
(b) O=C(NS(=O)(=O)c1cccc(N2CCC3(CCCO3)CC2)n1)C1(Oc2cc(Cl)ccc2C2CC3(CCC3)C2)CC1 [Example 7-6]
(c) CC1(C)CCCN(c2ccc(Cl)cc2OC2(C(=O)NS(=O)(=O)c3cccc(N4CC[C@](C)(O)C4)n3)CC2)C1 [Example 9-27]
(d) CC1(O)CCN(c2cccc(S(=O)(=O)NC(=O)C3(Oc4cc(Cl)ccc4N4CCC(C(C)(C)C)CC4)CC3)n2)CC1 [Example 9-35]
Prompt: Task for the reader: rank each entry by its Emax, from the minimum upward. # format: label list in the order the request specifies
Completion: d, b, a, c
(d: 140%, b: 408%, a: 590%, c: 857%)

(A) Cc1ccc(C2CCCCC2)c(OC2(C(=O)NS(=O)(=O)c3cccc(N4CCN(c5ccc(F)cc5)CC4)n3)CC2)c1 [Example 2-55]
(B) Cc1ccc(C2CCCCC2)c(OC2(C(=O)NS(=O)(=O)c3cccc(N4CCC5(CCCC5N)CC4)n3)CC2)c1 (centres unmarked) [Example 2-20]
(C) O=C(NS(=O)(=O)c1cccc(N2CC[C@H](O)C2)n1)C1(Oc2cc(Cl)ccc2N2CC3(COC3)C2)CC1 [Example 9-23]
(D) O=C(NS(=O)(=O)c1cccc(N2CC[C@H](O)C2)n1)C1(Oc2cc(C(F)(F)F)ccc2-c2cccc(C(F)(F)F)c2)CC1 [Example 5-5]
Prompt: Sequence the entries by Emax, beginning with the highest number. # format: label list in the order the request specifies
Completion: A, B, D, C
(A: 512%, B: 354%, D: 242%, C: 13.7%)
